Record form. Attribute: AUC(0-t). Fill in for each entry.
# Assay method text: Bioavailability study after multiple oral administration in Beagle dogs (serum levels by HPLC)
# Type: in vivo
# Assay context: both sexes, dog, area under serum concentration versus time curve 0-24 hours after dosing on day 7, 10 mg/kg/day (as free base) orally in gelatine capsules for 7 days, read-out: AUC0-24.7 Mean

Look at this compound and give its reported AUC(0-t). Cl.Fc1ccc(-n2cc(CCCCN3CCC4(CC3)OCc3ccccc34)c3ccccc32)cc1 [Hydrochloride]
12 µM·h

Next compound: Fc1ccc(-n2cc(CCCCN3CCC4(CC3)OCc3ccccc34)c3ccccc32)cc1.O=C(O)/C=C/C(=O)O [Fumarate]
4.02 µM·h
